Recorded values, source ChEMBL document CHEMBL1149527.

System: HeLa
Experiment: Antiproliferative activity against human HeLa cells after 48 hrs by MTT assay relative to control
Format: functional, cell-based
pIC50: −log10 of the molar value.
QUANTITY_NAME: pIC50

(1) Cc1cc2c(c(=O)n1C)C(c1ccc(F)c(Br)c1)C(C#N)=C(N)O2 (stereo not drawn)
(2) CCOc1c(Br)cc(C2C(C#N)=C(N)Oc3cc(C)n(C)c(=O)c32)cc1OC (stereo not drawn)
(3) Cc1cc2c(c(=O)n1C)C(c1ccc(N(C)C)c(Br)c1)C(C#N)=C(N)O2 (stereo not drawn)
Query string: Kindly provide a descending ordering of the above molecules based on their pIC50. To answer, arrange all of the labels according to the requested order.
Result string: 3, 2, 1
